test system: Staphylococcus aureus X400; experiment: MIC, standard agar-dilution assay, Staphylococcus aureus X400; assay type: cell-based; details: Staphylococcus aureus, X400
endpoint name: log10 of MIC (log10 of the value in µg/mL)
Would you kindly interpret these values as log10 of MIC expressed in µg/mL?

// solved cases for log10 of MIC follow
compound	quantitative result
CCC1OC(=O)CC(O)C(C)C(OC2OC(C)C(OC3CC(C)(O)C(O)C(C)O3)C(N(C)C)C2O)C(CCOC(C(F)(F)F)C(F)(F)F)CC(C)C(=O)C=CC(C)=CC1COC1OC(C)C(O)C(OC)C1OC (centres unmarked)	0.60
CCC1CC(C)C(=O)C=CC(C)=CC(COC2OC(C)C(O)C(O)C2OC)C(CC)OC(=O)CC(O)C(C)C1OC1OC(C)C(O)C(N(C)C)C1O (centres unmarked)	-0.30
CCC1OC(=O)CC(O)C(C)C(OC2OC(C)C(O)C(N(C)C)C2O)C(CCOc2ccc([N+](=O)[O-])cc2)CC(C)C(=O)C=CC(C)=CC1COC1OC(C)C(O)C(OC)C1OC (centres unmarked)	0.00
CCC1OC(=O)CC(O)C(C)C(OC2OC(C)C(O)C(N(C)C)C2O)C(CCOc2ccc(OC)cc2)CC(C)C(=O)C=CC(C)=CC1COC1OC(C)C(O)C(OC)C1OC (centres unmarked)	-0.60

Using the record for CCC1OC(=O)CC(O)C(C)C(OC2OC(C)C(O)C(N(C)C)C2O)C(CCSc2ccccc2)CC(C)C(=O)C=CC(C)=CC1COC1OC(C)C(O)C(OC)C1OC (centres unmarked) , state its measured log10 of MIC. -0.60

Using the record for CCC1OC(=O)CC(O)C(C)C(OC2OC(C)C(O)C(N(C)C)C2O)C(CCOc2cccc(N(C)C)c2)CC(C)C(=O)C=CC(C)=CC1COC1OC(C)C(O)C(OC)C1OC (centres unmarked) , state its measured log10 of MIC. -0.30

Using the record for CCC1OC(=O)CC(O)C(C)C(OC2OC(C)C(OC3CC(C)(O)C(O)C(C)O3)C(N(C)C)C2O)C(CCF)CC(C)C(=O)C=CC(C)=CC1COC1OC(C)C(O)C(OC)C1OC (centres unmarked) , state its measured log10 of MIC. 0.30

Using the record for CCC1OC(=O)CC(O)C(C)C(OC2OC(C)C(O)C(N(C)C)C2O)C(CC2SCCN2Cc2ccccc2)CC(C)C(=O)C=CC(C)=CC1COC1OC(C)C(O)C(OC)C1OC (centres unmarked) , state its measured log10 of MIC. -0.60

Using the record for CCC1OC(=O)CC(O)C(C)C(OC2OC(C)C(O)C(N(C)C)C2O)C(CCOC(=O)c2nn(CC)c3cc4c(cc3c2=O)OCO4)CC(C)C(=O)C=CC(C)=CC1COC1OC(C)C(O)C(OC)C1OC (centres unmarked) , state its measured log10 of MIC. 0.90

Using the record for CCC1OC(=O)CC(O)C(C)C(OC2OC(C)C(O)C(N(C)C)C2O)C(CCOc2ccc(C(=O)c3ccccc3)cc2)CC(C)C(=O)C=CC(C)=CC1COC1OC(C)C(O)C(OC)C1OC (centres unmarked) , state its measured log10 of MIC. -0.60

Using the record for CCOC(=O)NN(CCC1CC(C)C(=O)C=CC(C)=CC(COC2OC(C)C(O)C(OC)C2OC)C(CC)OC(=O)CC(O)C(C)C1OC1OC(C)C(OC2CC(C)(O)C(O)C(C)O2)C(N(C)C)C1O)C(=O)OCC (centres unmarked) , state its measured log10 of MIC. 0.90

Using the record for CCC1OC(=O)CC(O)C(C)C(OC2OC(C)C(OC3CC(C)(O)C(O)C(C)O3)C(N(C)C)C2O)C(CCOc2ccc(C(=O)c3ccccc3)cc2)CC(C)C(=O)C=CC(C)=CC1COC1OC(C)C(O)C(OC)C1OC (centres unmarked) , state its measured log10 of MIC. 0.60

----------
test system: Staphylococcus aureus X1.1; experiment: MIC, standard agar-dilution assay, Staphylococcus aureus X1.1; type: cell-based; conditions: Staphylococcus aureus, X1.1
endpoint name: MIC (µg/mL)
API: value field is a number in µg/mL; no unit string.

// solved cases for MIC follow
molecule	experimental system	quantitative result
CCC1OC(=O)CC(O)C(C)C(OC2OC(C)C(OC3CC(C)(O)C(O)C(C)O3)C(N(C)C)C2O)C(CCOc2cccc(N(C)C)c2)CC(C)C(=O)C=CC(C)=CC1COC1OC(C)C(O)C(OC)C1OC (stereo not drawn) [Compound 16]	Staphylococcus aureus X1.1	1
CCC1OC(=O)CC(O)C(C)C(OC2OC(C)C(O)C(N(C)C)C2O)C(CC2Nc3ccccc3S2)CC(C)C(=O)C=CC(C)=CC1COC1OC(C)C(O)C(OC)C1OC (stereo not drawn) [Compound 75]	Staphylococcus aureus X1.1	0.25
CCC1OC(=O)CC(O)C(C)C(OC2OC(C)C(OC3CC(C)(O)C(O)C(C)O3)C(N(C)C)C2O)C(CCOc2ccc(C=O)cc2)CC(C)C(=O)C=CC(C)=CC1COC1OC(C)C(O)C(OC)C1OC (stereo not drawn) [Compound 17, 20-DH-20-O-(p-Formylphenyl)tylosin]	Staphylococcus aureus X1.1	1
CCOC(=O)NN(CCC1CC(C)C(=O)C=CC(C)=CC(COC2OC(C)C(O)C(OC)C2OC)C(CC)OC(=O)CC(O)C(C)C1OC1OC(C)C(OC2CC(C)(O)C(O)C(C)O2)C(N(C)C)C1O)C(=O)OCC (stereo not drawn) [Compound 9]	Staphylococcus aureus X1.1	2

Could you now look at the following molecule, please?
Using the record for CCC1OC(=O)CC(O)C(C)C(OC2OC(C)C(O)C(N(C)C)C2O)C(CCOc2ccc(C=O)cc2)CC(C)C(=O)C=CC(C)=CC1COC1OC(C)C(O)C(OC)C1OC (stereo not drawn) [Compound 36, 20-DH-20-O-(p-formylphenyl)desmycosin] , state its measured MIC. 0.25

----------
tested on: Pasteurella multocida 60A; assay: MIC, broth-dilution microtiter test, Pasteurella multocida 60A; assay type: cell-based; details: Pasteurella multocida 60A; avian isolate; broth-dilution microtiter; read-out: MIC
Examples of compounds with documented MIC follow.

// solved cases for MIC follow
compound	MIC
CCC1OC(=O)CC(O)C(C)C(OC2OC(C)C(OC3CC(C)(O)C(O)C(C)O3)C(N(C)C)C2O)C(CCCl)CC(C)C(=O)C=CC(C)=CC1COC1OC(C)C(O)C(OC)C1OC (stereo not shown)	> 50 µg/mL
CCC1OC(=O)CC(O)C(C)C(OC2OC(C)C(OC3CC(C)(O)C(O)C(C)O3)C(N(C)C)C2O)C(CCOc2ccccc2)CC(C)C(=O)C=CC(C)=CC1COC1OC(C)C(O)C(OC)C1OC (stereo not shown)	> 50 µg/mL
CCC1OC(=O)CC(O)C(C)C(OC2OC(C)C(O)C(N(C)C)C2O)C(CCI)CC(C)C(=O)C=CC(C)=CC1COC1OC(C)C(O)C(O)C1OC (stereo not shown)	25 µg/mL

Could you now look at the following compound, please?
Using the record for CCC1OC(=O)CC(O)C(C)C(OC2OC(C)C(OC3CC(C)(O)C(O)C(C)O3)C(N(C)C)C2O)C(CCN2C(=O)c3ccccc3C2=O)CC(C)C(=O)C=CC(C)=CC1COC1OC(C)C(O)C(OC)C1OC (stereo not shown) , state its measured MIC. > 50 µg/mL

----------
Examples of compounds with documented MIC follow.
test system: Streptococcus bovis 80; assay: MIC, broth-dilution microtiter test, Streptococcus bovis 80; assay type: cell-based; settings: Streptococcus equinus; Streptococcus bovis 80; broth-dilution microtiter; read-out: MIC
API: value field is a number in µg/mL; no unit string.

// solved cases for MIC follow
compound	experimental system	quantitative result
CCC1OC(=O)CC(O)C(C)C(OC2OC(C)C(OC3CC(C)(O)C(O)C(C)O3)C(N(C)C)C2O)C(CCOS(=O)(=O)c2ccc(C)cc2)CC(C)C(=O)C=CC(C)=CC1COC1OC(C)C(O)C(O)C1OC (stereo not drawn)	Streptococcus bovis 80	6.25
CCC1OC(=O)CC(O)C(C)C(OC2OC(C)C(O)C(N(C)C)C2O)C(CCOC(C(F)(F)F)C(F)(F)F)CC(C)C(=O)C=CC(C)=CC1COC1OC(C)C(O)C(OC)C1OC (stereo not drawn)	Streptococcus bovis 80	12.5

Could you now look at the following compound, please?
Using the record for CCC1OC(=O)CC(O)C(C)C(OC2OC(C)C(OC3CC(C)(O)C(O)C(C)O3)C(N(C)C)C2O)C(CCOc2cccc(N(C)C)c2)CC(C)C(=O)C=CC(C)=CC1COC1OC(C)C(O)C(OC)C1OC (stereo not drawn) , state its measured MIC. 50

----------
test system: Staphylococcus aureus S13E; assay: MIC, standard agar-dilution assay, Staphylococcus aureus S13E; type: cell-based; conditions: Staphylococcus aureus, S13E
Examples of compounds with documented log10(MIC) follow.
Would you kindly interpret these values as log10 of MIC expressed in µg/mL?

// solved cases for log10(MIC) follow
compound	log10(MIC)
CCC1OC(=O)CC(O)C(C)C(OC2OC(C)C(OC3CC(C)(O)C(O)C(C)O3)C(N(C)C)C2O)C(CCOC(=O)c2nn(CC)c3cc4c(cc3c2=O)OCO4)CC(C)C(=O)C=CC(C)=CC1COC1OC(C)C(O)C(OC)C1OC (centres unmarked)	0.60
CCC1OC(=O)CC(O)C(C)C(OC2OC(C)C(O)C(N(C)C)C2O)C(CCOc2ccc(OC)cc2)CC(C)C(=O)C=CC(C)=CC1COC1OC(C)C(O)C(OC)C1OC (centres unmarked)	-0.60
CCC1OC(=O)CC(O)C(C)C(OC2OC(C)C(O)C(N(C)C)C2O)C(CCOC(C)=O)CC(C)C(=O)C=CC(C)=CC1COC1OC(C)C(O)C(OC)C1OC (centres unmarked)	-0.60

Tell me its log10(MIC) on Staphylococcus aureus S13E: CCC1OC(=O)CC(O)C(C)C(OC2OC(C)C(O)C(N(C)C)C2O)C(CCCl)CC(C)C(=O)C=CC(C)=CC1COC1OC(C)C(O)C(OC)C1OC (centres unmarked) -0.92

Tell me its log10(MIC) on Staphylococcus aureus S13E: CCC1OC(=O)CC(O)C(C)C(OC2OC(C)C(OC3CC(C)(O)C(O)C(C)O3)C(N(C)C)C2O)C(CCOc2ccc(-c3ccccc3)cc2)CC(C)C(=O)C=CC(C)=CC1COC1OC(C)C(O)C(OC)C1OC (centres unmarked) 0.30

Tell me its log10(MIC) on Staphylococcus aureus S13E: CCC1OC(=O)CC(O)C(C)C(OC2OC(C)C(O)C(N(C)C)C2O)C(CCOc2ccc(C=O)cc2)CC(C)C(=O)C=CC(C)=CC1COC1OC(C)C(O)C(OC)C1OC (centres unmarked) -0.60

Tell me its log10(MIC) on Staphylococcus aureus S13E: CCC1OC(=O)CC(O)C(C)C(OC2OC(C)C(OC3CC(C)(O)C(O)C(C)O3)C(N(C)C)C2O)C(CCOc2cccc(N(C)C)c2)CC(C)C(=O)C=CC(C)=CC1COC1OC(C)C(O)C(OC)C1OC (centres unmarked) 0.00

Tell me its log10(MIC) on Staphylococcus aureus S13E: CCOC(=O)c1ccc(OCCC2CC(C)C(=O)C=CC(C)=CC(COC3OC(C)C(O)C(OC)C3OC)C(CC)OC(=O)CC(O)C(C)C2OC2OC(C)C(O)C(N(C)C)C2O)cc1 (centres unmarked) -0.30

Origin of the recorded values: patent US4443436A
